# MEASUREMENT TARGET: UniProt:Q14973
# Sequence (Q14973 1-349): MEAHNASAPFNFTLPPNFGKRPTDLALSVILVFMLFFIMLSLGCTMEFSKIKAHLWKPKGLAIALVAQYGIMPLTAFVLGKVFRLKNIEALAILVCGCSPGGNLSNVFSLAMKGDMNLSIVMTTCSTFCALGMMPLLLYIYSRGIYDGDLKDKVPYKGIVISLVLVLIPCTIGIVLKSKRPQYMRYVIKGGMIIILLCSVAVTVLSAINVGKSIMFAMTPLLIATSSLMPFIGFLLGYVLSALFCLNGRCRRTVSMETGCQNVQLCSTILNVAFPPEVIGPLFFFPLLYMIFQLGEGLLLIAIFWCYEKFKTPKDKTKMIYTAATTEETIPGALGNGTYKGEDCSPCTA
# EXPERIMENT SUMMARY: Screening taurocholate uptake assay (96-well, [14C]taurocholate, 10 µM drug)
# RECORDED CONDITIONS: combined ranking from functional and binding screening assays
Structures can show the parent of a compound that is named as a salt.
Kindly return label 1 if reported Ranking score is no lower than 400; return label 0 if it is lower.

Request: # bool: Ranking score of CC(=O)O[C@]1(C(C)=O)CC[C@H]2[C@@H]3C=C(C)C4=CC(=O)CC[C@@H]4[C@H]3CC[C@@]21C [Nomegestrol acetate] >= 400
Response: label 0

Request: Does Ranking score meet or surpass 400 for [H]/N=C(\N/C(=N/[H])Nc1ccc(Cl)cc1)NC(C)C [Proguanil hydrochloride] ?
Response: label 0

Request: Identify whether the reported Ranking score of the following molecule is 400 or greater: CC[C@H]1OC(=O)[C@H](C)[C@@H](O[C@H]2C[C@@](C)(OC)[C@@H](O)[C@H](C)O2)[C@H](C)[C@@H](O[C@@H]2O[C@H](C)C[C@H](N(C)C)[C@H]2O)[C@](C)(OC)C[C@@H](C)C(=O)[C@H](C)[C@@H](O)[C@]1(C)O [Clarithromycin]
Response: label 0

Request: Say whether COC(=O)Nc1nc2ccc(C(=O)c3ccccc3)cc2[nH]1 [Mebendazole] shows Ranking score of 400 or more.
Response: label 0

Request: Decide: Ranking score of COC(=O)Nc1nc2ccc(C(=O)c3cccs3)cc2[nH]1 [Nocodazole] >= 400?
Response: label 1

Request: Is Ranking score at least 400? Consider CC(C(=O)O)c1ccc2c(c1)[nH]c1ccc(Cl)cc12 (centres unmarked) [Carprofen]
Response: label 0

Request: Identify whether the reported Ranking score of the following molecule is 400 or greater: CC1(C)S[C@@H]2[C@H](NC(=O)Cc3ccccc3)C(=O)N2[C@H]1C(=O)O [Benzylpenicillin sodium]
Response: label 0

Request: Hi team, for COc1ccccc1OCCNCC(O)COc1cccc2[nH]c3ccccc3c12 (centres unmarked) [Carvedilol] , is the recorded Ranking score at or above 400?
Response: label 0

Request: Is Ranking score at least 400? Consider COC(=O)C1=C(C#N)NC(C)=C(C(=O)OC(C)C)C1c1cccc([N+](=O)[O-])c1 (centres unmarked) [Nilvadipine]
Response: label 0

Request: Could you tell me if the measured Ranking score of CC(C(=O)[O-])c1cccc(Oc2ccccc2)c1.CC(C(=O)[O-])c1cccc(Oc2ccccc2)c1.O.O.[Ca+2] (centres unmarked) [Fenoprofen calcium salt dihydrate] reaches 400 or more?
Response: label 1

Request: Determine whether this molecule has Ranking score no lower than 400: Cc1c(N(C)CS(=O)(=O)[O-])c(=O)n(-c2ccccc2)n1C.[Na+] [Dipyrone]
Response: label 0
